experiment.summary: Hemolytic activity in mouse Red blood cells incubated for 1 hr by microplate reader assay
Assay type: toxicity, cell-based, Erythrocyte
experimental.context: red blood cells
Square brackets hold non-standard residues; d marks the D form. Peptide text beside a SMILES is read from it. * marks the point of attachment. NMeR = CN[C@@H](CCCNC(=N)N)C(=O)O; NMeI = CC[C@H](C)[C@H](NC)C(=O)O; Tridecanoyl = CCCCCCCCCCCCC(=O)*; NMeL = CN[C@@H](CC(C)C)C(=O)O; Undecanoyl = CCCCCCCCCCC(=O)*; NMeK = CN[C@@H](CCCCN)C(=O)O; Nonanoyl = CCCCCCCCC(=O)*
assay.endpoint: HC50 at 1 h

Q. Hello, please tell me recorded HC50 at 1 h for this one: CCCCCCCCCCC(=O)NCC(=O)N[C@@H](CC(C)C)C(=O)N(C)[C@@H](CC(C)C)C(=O)N[C@@H](CCCCN)C(=O)N[C@@H](CCCNC(=N)N)C(=O)N(C)[C@H](C(=O)N[C@@H](CCCCN)C(=O)N[C@H](C(=O)N[C@@H](CC(C)C)C(=O)N[C@@H](CC(C)C)C(N)=O)[C@@H](C)O)[C@@H](C)CC (Undecanoyl-GL[NMeL]KR[NMeI]KTLL-NH2)
A. > 256 µM

Q. Hello, please tell me recorded HC50 at 1 h for this one: CCCCCCCCC(=O)NCC(=O)N[C@@H](CC(C)C)C(=O)N[C@@H](CC(C)C)C(=O)N[C@@H](CCCCN)C(=O)N(C)[C@@H](CCCNC(=N)N)C(=O)N[C@H](C(=O)N(C)[C@@H](CCCCN)C(=O)N[C@H](C(=O)N[C@@H](CC(C)C)C(=O)N[C@@H](CC(C)C)C(N)=O)[C@@H](C)O)[C@@H](C)CC (Nonanoyl-GLLK[NMeR]I[NMeK]TLL-NH2)
A. > 256 µM

Q. Hello, please tell me recorded HC50 at 1 h for this one: CCCCCCCCC(=O)NCC(=O)N[C@@H](CC(C)C)C(=O)N[C@@H](CC(C)C)C(=O)N(C)[C@@H](CCCCN)C(=O)N[C@@H](CCCNC(=N)N)C(=O)N[C@H](C(=O)N(C)[C@@H](CCCCN)C(=O)N[C@H](C(=O)N[C@@H](CC(C)C)C(=O)N[C@@H](CC(C)C)C(N)=O)[C@@H](C)O)[C@@H](C)CC (Nonanoyl-GLL[NMeK]RI[NMeK]TLL-NH2)
A. > 256 µM

Q. Hello, please tell me recorded HC50 at 1 h for this one: CCCCCCCCCCCCC(=O)NCC(=O)N[C@@H](CC(C)C)C(=O)N[C@@H](CC(C)C)C(=O)N(C)[C@@H](CCCCN)C(=O)N[C@@H](CCCNC(=N)N)C(=O)N[C@H](C(=O)N(C)[C@@H](CCCCN)C(=O)N[C@H](C(=O)N[C@@H](CC(C)C)C(=O)N[C@@H](CC(C)C)C(N)=O)[C@@H](C)O)[C@@H](C)CC (Tridecanoyl-GLL[NMeK]RI[NMeK]TLL-NH2)
A. 64 µM

Q. Hello, please tell me recorded HC50 at 1 h for this one: CCCCCCCCC(=O)NCC(=O)N[C@@H](CC(C)C)C(=O)N(C)[C@@H](CC(C)C)C(=O)N[C@@H](CCCCN)C(=O)N[C@@H](CCCNC(=N)N)C(=O)N(C)[C@H](C(=O)N[C@@H](CCCCN)C(=O)N[C@H](C(=O)N[C@@H](CC(C)C)C(=O)N[C@@H](CC(C)C)C(N)=O)[C@@H](C)O)[C@@H](C)CC (Nonanoyl-GL[NMeL]KR[NMeI]KTLL-NH2)
A. > 256 µM

Q. Hello, please tell me recorded HC50 at 1 h for this one: CCCCCCCCCCC(=O)NCC(=O)N[C@@H](CC(C)C)C(=O)N[C@@H](CC(C)C)C(=O)N[C@@H](CCCCN)C(=O)N(C)[C@@H](CCCNC(=N)N)C(=O)N[C@H](C(=O)N(C)[C@@H](CCCCN)C(=O)N[C@H](C(=O)N[C@@H](CC(C)C)C(=O)N[C@@H](CC(C)C)C(N)=O)[C@@H](C)O)[C@@H](C)CC (Undecanoyl-GLLK[NMeR]I[NMeK]TLL-NH2)
A. > 256 µM
